study-system: T1, human B7-H1 expressed on cells (human, UniProt Q9NZQ7 19-290)
T1 construct: whole, on cells; also called PD-L1; huB7-H1
T1 sequence (Q9NZQ7 19-290): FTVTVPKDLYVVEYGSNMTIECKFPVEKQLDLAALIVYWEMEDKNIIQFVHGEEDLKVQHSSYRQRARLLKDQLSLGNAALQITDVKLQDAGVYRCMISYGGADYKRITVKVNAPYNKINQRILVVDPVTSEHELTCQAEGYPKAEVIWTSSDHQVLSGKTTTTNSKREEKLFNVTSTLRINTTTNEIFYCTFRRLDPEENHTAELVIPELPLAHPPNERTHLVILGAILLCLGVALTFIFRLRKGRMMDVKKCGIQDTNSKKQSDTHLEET
experiment: FACS competition: inhibition of biotinylated PD-1/Fc (10 ug/ml) binding to human B7-H1 on ES-2 cells
measure-name: pIC50
Value format note: pIC50 is -log10 of concentration (mol/L); just state the number.

Problem: pIC50 lookup needed for 3.15G8 (antibody, IgG4, V domains shown, also called mAb 3.15G8) VH: EVQLVESGGGLVQPGGSLRLSCAASGFTFSSYWMSWVRQAPGKGLEWVANIKQDGGEKYYVDSVKGRFTISRDNAKNSLFLQMNSLRAEDTAVYYCARVQLYSDYFDYWGQGTLVTVSS VL: DIQMTQSPSSVSASVGDRVTITCRASQGISSWLAWYQQKSGKAPKLLIYAASGLQSGVPSRFSGSGSGTDFTLTISSLQPEDLATYYCQQSHSLPPTFGQGTKVEIK , thanks.
Solution: 9.83

Problem: pIC50 lookup needed for 2.20A8 (antibody, IgG2, V domains shown, also called mAb 2.20A8) VH: EVQLLESGGGLVQPGGSLRLSCAASGFTFSNYAMSWVRQAPGKGLEWVSAIRGSGGSTYYADSVKGRFTISRDNSKNTLYLQMNSLRAEDTAVYYCAKDLHYDSSGYLDYWGQGTLVTVSS VL: DIQMTQSPSSVSASVGDRVTITCRASQGIRSWLAWYQQKPGKAPKLLIYAISRLQSGVPSRFSGSGSGTDFTLTISSLQPEDFATYYCQQANSFPLTFGGGTKVEIK , thanks.
Solution: 9.70

Problem: pIC50 lookup needed for 3.18G1 (antibody, V domains shown, also called mAb 3.18G1) VH: EVQLLESGGDLVQPGGSLRLSCAASGFTFNSYAMSWVRQAPGKGLEWVSTISGSGGFTFSADSVKGRFTISRDNSKNTLFLQMNSLRVEDSAVYSCAKVLVGFNNGCWDYWGQGTLVTVSS VL: SYVLTQPPSVSVAPGQTARITCGGNNIGSKSVHWYQQKPGQAPVLVVYDDSDRPSGIPERFSGSNSGNTATLTISRVEAGDEADYYCQVWDSSNDHVVFGGGTKLTVL , thanks.
Solution: 9.85

Problem: pIC50 lookup needed for 2.7A4 (antibody, IgG2, V domains shown, also called mAb 2.7A4) VH: EVQLVESGGGLVKPGGSLRLSCAASGFTFSTYSMNWVRQAPGKGLEWVSSISSSGDYIYYADSVKGRFTISRDNAKNSLFLQMNSLKAEDTAVYYCARDLVTSMVAFDYWGQGTLVTVSS VL: SYELTQPPSVSVSPGQAARITCSGDALPQKYVFWYQQKSGQAPVLVIYEDSKRPSGIPERFSGSSSGTMATLTISGAQVEDEADYYCYSTDRSGNHRVFGGGTRLTVL , thanks.
Solution: 10.11
